Ref: ChEMBL document CHEMBL4513216

cytotoxicity at 10 µM for assorted compounds
# test description: Toxicity liver stage against HepG2, at 10uM
# Type: cell-based
# Parameters: test concentration 10 uM, cell line HepG2-A16-CD81EGFP
# particulars: human, HepG2-A16-CD81EGFP cells; read-out: INHIBITION

compound	unit text	cytotoxicity at 10 µM
CCN(CC)Cc1cn2c(n1)CN(C(=O)c1cnccn1)CC2	%	6.15
Cc1occc1C(=O)Nc1cnn(CCN2CCOCC2)c1	%	-10
Cn1nccc1C(=O)NCCN1CCC(O)(c2ccc(F)cc2)CC1	%	1.09
O=C(c1cn(CC(=O)N2CCCC2)c2ccccc12)C1CC1	%	14.2
Cc1nn(C)c(Cl)c1C1CCCN1Cc1nnc(C2CC2)o1 (stereo unspecified)	%	-6.18
CCCn1ccnc1CN1CCCC1c1ccccn1 (stereo unspecified)	%	-7.25
